# testSystem: T1, human TNF-alpha (hTNF-alpha) (human, UniProt P01375 77-233)
# T1 construct: also called biotinylated hTNF-; [125I]TNF-
# assaySummary: SPR (BIAcore), TNFrED captured on BAF225 anti-TNFrED surface, TNF-alpha injected at 1-100 nM, global 1:1 fit
experimentalReadout: Kd (nM)
Express it in nM; write the number only.

Field: example entries. Status: answers known.
{"columns": ["binder", "Kd [nM]"],
 "data": [
  ["TNFrED S57I (receptor, Secreted from HEK293-EBNA cells, conditioned medium; also called S571) DSVCPQGKYIHPQNNSICCTKCHKGTYLYNDCPGPGQDTDCRECEIGSFTASENHLRHCLSCSKCRKEMGQVEISSCTVDRDTVCGCRKNQYRHYWSENLFQCFNCSLCLNGTVHLSCQEKQNTVCTCHAGFFLRENECVSCSNCKKSLECTKLCLPQIEN", 0.5],
  ["TNFrED H34P (receptor, Secreted from HEK293-EBNA cells, conditioned medium) DSVCPQGKYIHPQNNSICCTKCPKGTYLYNDCPGPGQDTDCRECESGSFTASENHLRHCLSCSKCRKEMGQVEISSCTVDRDTVCGCRKNQYRHYWSENLFQCFNCSLCLNGTVHLSCQEKQNTVCTCHAGFFLRENECVSCSNCKKSLECTKLCLPQIEN", 0.5],
  ["TNFrED S87P (receptor, Secreted from HEK293-EBNA cells, conditioned medium) DSVCPQGKYIHPQNNSICCTKCHKGTYLYNDCPGPGQDTDCRECESGSFTASENHLRHCLSCSKCRKEMGQVEISPCTVDRDTVCGCRKNQYRHYWSENLFQCFNCSLCLNGTVHLSCQEKQNTVCTCHAGFFLRENECVSCSNCKKSLECTKLCLPQIEN", 0.6]
]}

**Q:** Specify Kd for TNFrED H34P+S57I (receptor, Secreted from HEK293-EBNA cells, conditioned medium; also called H34P + S571) DSVCPQGKYIHPQNNSICCTKCPKGTYLYNDCPGPGQDTDCRECEIGSFTASENHLRHCLSCSKCRKEMGQVEISSCTVDRDTVCGCRKNQYRHYWSENLFQCFNCSLCLNGTVHLSCQEKQNTVCTCHAGFFLRENECVSCSNCKKSLECTKLCLPQIEN and stop.
**A:** 0.6

**Q:** Specify Kd for TNFrED H34P+S57I+S87P (receptor, Secreted from HEK293-EBNA cells, conditioned medium; also called H34P + S87P + S571) DSVCPQGKYIHPQNNSICCTKCPKGTYLYNDCPGPGQDTDCRECEIGSFTASENHLRHCLSCSKCRKEMGQVEISPCTVDRDTVCGCRKNQYRHYWSENLFQCFNCSLCLNGTVHLSCQEKQNTVCTCHAGFFLRENECVSCSNCKKSLECTKLCLPQIEN and stop.
**A:** 0.6

**Q:** Specify Kd for TNFrED H34P+S87P (receptor, Secreted from HEK293-EBNA cells, conditioned medium) DSVCPQGKYIHPQNNSICCTKCPKGTYLYNDCPGPGQDTDCRECESGSFTASENHLRHCLSCSKCRKEMGQVEISPCTVDRDTVCGCRKNQYRHYWSENLFQCFNCSLCLNGTVHLSCQEKQNTVCTCHAGFFLRENECVSCSNCKKSLECTKLCLPQIEN and stop.
**A:** 0.6
